These data points were gathered from patent US20260234209A1.

Listed here are binders together with their documented EC50 of ERK1/2 phosphorylation (phosphoflow) in CHO-R1c cells.
target: human FGFR1c (human), P11362; assay: cell-based or functional assay
Write it as a number; the unit nM goes unstated.

Consider the reported EC50 of ERK1/2 phosphorylation (phosphoflow) in CHO-R1c cells for these binders:
# binder, result_units, measured_number
data = [
    ("C4-71N_mb7 (designed binder) MGDRRKEMDKVYRTAYKRITSTPDKEKRKEVVKEATEQLRRIAKDEEEKKKAAYMISFLKTLGSPEEILERARESLERAREASERGDEEEFRKAAEKALELAKRLVEQAKKEGDPWMVMWAALVALWVALLALRNGDKEVFKKAAESALEVAKRLVEVASKEGDPEMVLLAAWVALFVAWLAWLFGDKEVFKKAAESALEVAKRLVEVASKEGDPELVEEAAKVAEEVEKLAEKQGDEEVREKAWETWMEVWLLWLEVRLRKGGGGSLEHHHHHH", "nM", 0.89),
    ("C2-58-2X_mb7 (designed binder) MHHHHHHAENLYFQSGSDEELLRELLKLLLKLLEQMGDEEARRVVEELREELEKKGDPRALVLAFALVILVFLLRILRELGDEELVRRVEELWEELLKEGDPQAMMEVFKLVQELQERRGSGSDRRKEMDKVYRTAYKRITSTPDKEKRKEVVKEATEQLRRIAKDEEEKKKAAYMISFLKTLGS", "nM", 0.63),
    ("C6-79C_mb7 (designed binder) MGSSDEEEARELEERAREAAKRAIEAAKRTGDPRVRELAEELVKLAIWAAVEVWLDPSSSDVNEALKLIVEAIEAAVRALEAAERTGDPEVRELARELVRLAVEAAEEVQRNPSSSDVNEALKLIVIAIEAAVRALEAAERTGDPEVRELARELVRLAVEAAEEVQRNPSSEEVNEALRKIIKLILFAVMVLELAEEIGDPTWREMARRAVREAVELAEEVQRDPSGWLGHGSDRRKEMDKVYRTAYKRITSTPDKEKRKEVVKEATEQLRRIAKDEEEKKKAAYMISFLKTLGSLEHHHHHH", "nM", 1.56),
]

// next entry
input: Returns the measured EC50 of ERK1/2 phosphorylation (phosphoflow) in CHO-R1c cells for the input binder. Input: C4-71C_mb7 (designed binder) MGPEEILERARESLERAREASERGDEEEFRKAAEKALELAKRLVEQAKKEGDPWMVMWAALVALWVALLALRNGDKEVFKKAAESALEVAKRLVEVASKEGDPEMVLLAAWVALFVAWLAWLFGDKEVFKKAAESALEVAKRLVEVASKEGDPELVEEAAKVAEEVEKLAEKQGDEEVREKAWETWMEVWLLWLEVRLRKGGGGSDRRKEMDKVYRTAYKRITSTPDKEKRKEVVKEATEQLRRIAKDEEEKKKAAYMISFLKTLGSLEHHHHHH
output: 1.33
